This listing pairs compounds with measured Papp B→A at 2 h, 10 NM.
- measurement description: Caco-2 permeability of ADC payload
- Type: in vitro ADME
- condition summary: human, Caco-2, unconjugated payload; basolateral to apical, 2 hours; read-out: Permeability Mean Caco-2 B-A Perm (10e−G cm/s)
parameter: Papp B→A at 2 h, 10 NM (×10⁻⁶ cm/s)

compound: CC[C@H](O)[C@@H](C)C1OC1C[C@@](C)(O)/C=C/C=C(\C)[C@H]1OC(=O)C[C@H](O)CC[C@@](C)(OC(C)=O)[C@@H](OC(=O)N2CCNCC2)/C=C/[C@@H]1C (stereo in doubt) [D4]
assay result: 1.79
//
compound: CC[C@H](O)[C@@H](C)[C@H]1O[C@@H]1C[C@@](C)(O)/C=C/C=C(\C)[C@H]1OC(=O)C[C@H](O)CC[C@@](C)(OC)[C@@H](OC(=O)N2CCN(CCCC(=O)O)CC2)/C=C/[C@@H]1C [D25]
assay result: 0.349
//
compound: C/C(=C\c1cc(F)cc(N2CCN(C(=O)Cn3cccn3)CC2)c1)[C@H]1OC(=O)C[C@H](O)CC[C@H](C)[C@@H](OC(=O)N2CCN(C)CC2)/C=C/[C@@H]1C [D26]
assay result: 41.1
//
compound: CC[C@H](O)[C@@H](C)[C@H]1O[C@@H]1C[C@H](C)/C=C/C=C(\C)[C@H]1OC(=O)C[C@H](O)CC[C@@](C)(OC)[C@@H](OC(=O)N2CCNCC2)/C=C/[C@@H]1C [D18]
assay result: 27.4
//
compound: C/C(=C\c1cc(F)cc(N2CCN(CC(=O)O)CC2)c1)[C@H]1OC(=O)C[C@H](O)CC[C@H](C)[C@@H](OC(=O)N2CCNCC2)/C=C/[C@@H]1C [D33]
assay result: 0.53
//
compound: CC[C@H](O)[C@@H](C)[C@H]1O[C@@H]1C[C@H](C)/C=C/C=C(\C)[C@H]1OC(=O)C[C@H](O)CC[C@@](C)(OC(C)=O)[C@@H](OC(=O)N2CCNCC2)/C=C/[C@@H]1C [D9]
assay result: 16.1
//
compound: C/C(=C\c1cc(F)cc(N2CCOCC2)c1)[C@H]1OC(=O)C[C@H](O)CC[C@H](C)[C@@H](OC(=O)N2CCN(C)CC2)/C=C/[C@@H]1C [D17]
assay result: 18.2
//
compound: CC[C@H](O)[C@@H](C)[C@H]1O[C@@H]1C[C@@](C)(O)/C=C/C=C(\C)[C@H]1OC(=O)C[C@H](O)CC[C@@](C)(OC)[C@@H](OC(=O)N(C)CCNC)/C=C/[C@@H]1C [D20]
assay result: 0.38
//
compound: CC[C@H](O)[C@@H](C)[C@H]1O[C@@H]1C[C@@](C)(O)/C=C/C=C(\C)[C@H]1OC(=O)C[C@H](O)CC[C@@](C)(OC(=O)N2CCNCC2)[C@@H](OC(C)=O)/C=C/[C@@H]1C [D8]
assay result: 2.03
//
compound: CC[C@H](O)[C@@H](C)C1OC1C[C@@](C)(O)/C=C/C=C(\C)[C@H]1OC(=O)C[C@H](O)CC[C@@](C)(OC)[C@@H](OC(=O)N2CCNCC2)/C=C/[C@@H]1C (stereo in doubt) [D1]
assay result: 2.05
//
compound: CC[C@H](O)[C@@H](C)[C@H]1O[C@@H]1C[C@@](C)(O)/C=C/C=C(\C)[C@H]1OC(=O)C[C@H](O)CC[C@@](C)(O)[C@@H](OC(=O)N2CCN(C3CCCCCC3)CC2)/C=C/[C@@H]1C [D11, E7107]
assay result: 10.6
//
compound: CC[C@H](O)[C@@H](C)[C@H]1O[C@@H]1C[C@@](C)(O)/C=C/C=C(\C)[C@H]1OC(=O)C[C@H](O)CC[C@@](C)(OC)[C@@H](OC(=O)N2CCN(C)CC2)/C=C/[C@@H]1C [D2]
assay result: 14.2
//
compound: CC[C@H](O)[C@@H](C)[C@H]1O[C@@H]1C[C@H](C)/C=C/C=C(\C)[C@H]1OC(=O)C[C@H](O)CC[C@@](C)(OC(=O)N2CCNCC2)[C@@H](OC(C)=O)/C=C/[C@@H]1C [D13]
assay result: 17.2
//
compound: C/C(=C\c1cc(F)cc(N2CCN(C(=O)Cn3cccn3)CC2)c1)[C@H]1OC(=O)C[C@H](O)CC[C@H](C)[C@@H](OC(=O)N2CCNCC2)/C=C/[C@@H]1C [D16]
assay result: 23.3
//
compound: CC(=O)N1CCC(n2nnc3c(F)cc(/C=C(\C)[C@H]4OC(=O)C[C@H](O)CC[C@H](C)[C@@H](OC(=O)N5CCNCC5)/C=C/[C@@H]4C)cc32)CC1 [D14]
assay result: 12.1
//
compound: CC[C@H](O)[C@@H](C)[C@H]1O[C@@H]1C[C@@](C)(O)/C=C/C=C(\C)[C@H]1OC(=O)C[C@H](O)CC[C@@](C)(OC)[C@@H](OC(=O)N2CCNC(CCC(=O)O)C2)/C=C/[C@@H]1C (some centres unmarked) [D22]
assay result: 0.16
//
compound: CC(=O)N1CCC(n2nnc3c(F)cc(/C=C(\C)[C@H]4OC(=O)C[C@H](O)CC[C@H](C)[C@@H](OC(=O)N5CCN(C)CC5)/C=C/[C@@H]4C)cc32)CC1 [D15]
assay result: 26.9
